Parameter shrunken log2 fold change: see the listing below.
# Test system: Escherichia coli TOP10;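 note: peptides expressed intracellularly from a pBAD plasmid library in pooled LB shake-flask culture, induced with 0.3% L-arabinose, DNA abundance read by NGS, three biological replicates, DESeq2 with apeglm shrinkage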
# ASSAY_DETAILS: shrunken log2 fold change of peptide-encoding DNA abundance (4.5 h post-induction vs induction); higher = less antimicrobial activity (less host growth inhibition)
# ASSAY_SETUP: time post-induction: 4.5 h; library: site-saturation at positions 5, 18, 19, 20
Lab note: jot down the number only; don't add units.

Check out these entries, answers already filled in.
Item RRIRSRPPRLPRPRPRPIPLPRP with Escherichia coli TOP10 - shrunken log2 fold change?
-0.115

Try RRIRIRPPRLPRPRPRPNCMPRP next.
-0.287

Another sequence: RRIRARPPRLPRPRPRPSSWPRP
0.158

Next:
Reported shrunken log2 fold change for Escherichia coli TOP10, given RRIRYRPPRLPRPRPRPAVVPRP ?
-0.149

Queued: RRIRCRPPRLPRPRPRPNPNPRP
-0.135

Similarly, RRIRCRPPRLPRPRPRPFCIPRP ?
-0.571

Similarly, RRIRGRPPRLPRPRPRPLRSPRP ?
1.67

Then what about the sequence RRIRYRPPRLPRPRPRPHYYPRP ?
0.0204

Then what about the sequence RRIRARPPRLPRPRPRPVLEPRP ?
0.488

And then RRIRHRPPRLPRPRPRPDRQPRP , what is it?
-0.135
